# ASSAYED_SYSTEM: rat Oat2 (Rattus norvegicus)
# PROTOCOL_DESCRIPTION: in vitro
# EXPERIMENTAL_CONTEXT: rat, other cell line
# Method: Briefly, HEK-293 cells were grown, at 37°C and 5% CO2, in Dulbecco’s modified Eagle’s medium, which was fortified with 10% fetal bovine serum, 1% minimal essential medium nonessential amino acids, and 1% antibiotic-antimycotic solution. […] Transport studies were performed 48 h after the transfection. […] All the incubation samples were analyzed by liquid chromatography/mass spectrometry. […]
METRIC_NAME: microsomal CLint (µL/min/mg)
Provide only the numeric value, understood in µL/min/mg.

Q: // query microsomal CLint value for entry O=C(/C=C/c1ccc(O)c(O)c1)O[C@H](Cc1ccc(O)c(O)c1)C(=O)O
A: 5.2

###

# ASSAYED_SYSTEM: rat Oat2 (Rattus norvegicus, UniProt Q5RLM2)
# Sequence (Q5RLM2 whole entry): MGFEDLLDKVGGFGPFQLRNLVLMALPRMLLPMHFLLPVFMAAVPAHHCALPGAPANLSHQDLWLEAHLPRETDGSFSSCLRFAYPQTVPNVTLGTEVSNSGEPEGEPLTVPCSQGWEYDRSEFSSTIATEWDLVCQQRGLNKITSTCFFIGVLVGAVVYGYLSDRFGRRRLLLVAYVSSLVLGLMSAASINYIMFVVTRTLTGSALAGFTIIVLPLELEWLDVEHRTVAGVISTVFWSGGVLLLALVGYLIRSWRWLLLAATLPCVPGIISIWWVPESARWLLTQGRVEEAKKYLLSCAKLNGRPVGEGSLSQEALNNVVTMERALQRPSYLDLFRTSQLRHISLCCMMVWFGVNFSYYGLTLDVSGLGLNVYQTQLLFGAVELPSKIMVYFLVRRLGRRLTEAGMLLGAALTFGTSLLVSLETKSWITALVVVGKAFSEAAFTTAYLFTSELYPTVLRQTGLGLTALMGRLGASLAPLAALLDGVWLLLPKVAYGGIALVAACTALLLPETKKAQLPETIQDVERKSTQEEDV
# PROTOCOL_DESCRIPTION: Cellular transport assay, HEK-293 cells expressing rat Oat2
# EXPERIMENTAL_CONTEXT: rat hepatic sinusoidal uptake Oat2 (also renal apical); 5 min incubation, concentrations in Table 1
Each record here notes measured K m.
Express the result in µM but write the number alone.

O=C(O)Cc1c(/C=C/C(=O)O[C@H](Cc2ccc(O)c(O)c2)C(=O)O)ccc(O)c1O	60.0
O=C(O)c1ccc(O)c(O)c1	109
O=C(O)C(O)Cc1ccc(O)c(O)c1 (stereo not shown)	978

Now look at this one.
Q: Value lookup for K m; key = O=C(/C=C/c1ccc(O)c(O)c1)O[C@H](Cc1ccc(O)c(O)c1)C(=O)O
A: 119

###

# ASSAYED_SYSTEM: human OATP1B1 (Homo sapiens)
# Sequence (Q9Y6L6 whole entry): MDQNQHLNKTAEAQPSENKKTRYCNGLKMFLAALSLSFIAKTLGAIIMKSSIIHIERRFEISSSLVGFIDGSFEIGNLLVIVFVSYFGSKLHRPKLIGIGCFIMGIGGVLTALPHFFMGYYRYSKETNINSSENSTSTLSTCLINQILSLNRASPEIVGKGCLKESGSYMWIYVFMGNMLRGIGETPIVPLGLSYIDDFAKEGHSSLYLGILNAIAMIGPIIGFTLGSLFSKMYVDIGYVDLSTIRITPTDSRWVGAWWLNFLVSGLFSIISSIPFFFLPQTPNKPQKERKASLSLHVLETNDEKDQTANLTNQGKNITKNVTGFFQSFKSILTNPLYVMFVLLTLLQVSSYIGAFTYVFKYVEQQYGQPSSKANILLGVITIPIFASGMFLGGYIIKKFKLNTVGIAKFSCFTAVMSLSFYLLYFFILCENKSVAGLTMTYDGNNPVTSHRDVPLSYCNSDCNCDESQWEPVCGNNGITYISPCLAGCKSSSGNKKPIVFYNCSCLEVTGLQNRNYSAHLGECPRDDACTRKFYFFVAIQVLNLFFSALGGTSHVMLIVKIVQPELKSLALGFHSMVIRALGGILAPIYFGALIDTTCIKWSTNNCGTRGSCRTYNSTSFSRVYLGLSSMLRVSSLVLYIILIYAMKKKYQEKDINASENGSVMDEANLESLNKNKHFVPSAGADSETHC
# PROTOCOL_DESCRIPTION: Cellular transport assay, HEK-293 cells expressing human OATP1B1
# EXPERIMENTAL_CONTEXT: human
METRIC_NAME: microsomal CLint (µL/min/mg)
Please state the figure in µL/min/mg; there is no need to write the unit.

O=C(/C=C/c1ccc(O)c2c1[C@H](C(=O)O)[C@@H](c1ccc(O)c(O)c1)O2)O[C@H](Cc1ccc(O)c(O)c1)C(=O)O	0.06

From here, focus on the item given below.
Q: Can you share its microsomal CLint? I mean this compound: O=C(O)Cc1c(/C=C/C(=O)O[C@H](Cc2ccc(O)c(O)c2)C(=O)O)ccc(O)c1O
A: 0.22

###

# ASSAYED_SYSTEM: human OAT3 (Homo sapiens)
# Sequence (Q8TCC7 whole entry): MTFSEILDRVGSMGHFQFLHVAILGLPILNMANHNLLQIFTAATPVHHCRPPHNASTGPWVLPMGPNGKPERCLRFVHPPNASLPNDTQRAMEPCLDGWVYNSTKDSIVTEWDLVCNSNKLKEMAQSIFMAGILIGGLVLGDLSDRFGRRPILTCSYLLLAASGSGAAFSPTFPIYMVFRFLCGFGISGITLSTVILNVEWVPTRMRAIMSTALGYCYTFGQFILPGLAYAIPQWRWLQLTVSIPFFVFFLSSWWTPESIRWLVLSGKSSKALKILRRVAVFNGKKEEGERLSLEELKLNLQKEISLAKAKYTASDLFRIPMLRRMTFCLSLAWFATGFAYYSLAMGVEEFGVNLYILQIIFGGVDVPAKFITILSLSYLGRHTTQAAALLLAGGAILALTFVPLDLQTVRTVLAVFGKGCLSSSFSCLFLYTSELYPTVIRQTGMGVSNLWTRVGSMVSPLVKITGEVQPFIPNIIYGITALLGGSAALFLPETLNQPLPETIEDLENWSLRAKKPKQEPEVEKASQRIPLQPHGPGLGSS
# PROTOCOL_DESCRIPTION: Cellular transport assay, HEK-293 cells expressing human OAT3
# EXPERIMENTAL_CONTEXT: human, other cell line
METRIC_NAME: microsomal CLint
Write your answer as a measured quantity: the number, then the unit.

Q: Could you tell me which microsomal CLint is on file for O=C(O)C(O)Cc1ccc(O)c(O)c1 (stereo not shown) ?
A: 0.11 µL/min/mg

###

# ASSAYED_SYSTEM: human OATP1B1 (Homo sapiens)
# PROTOCOL_DESCRIPTION: in vitro
# EXPERIMENTAL_CONTEXT: human, other cell line
# Method: Briefly, HEK-293 cells were grown, at 37°C and 5% CO2, in Dulbecco’s modified Eagle’s medium, which was fortified with 10% fetal bovine serum, 1% minimal essential medium nonessential amino acids, and 1% antibiotic-antimycotic solution. […] Transport studies were performed 48 h after the transfection. […] All the incubation samples were analyzed by liquid chromatography/mass spectrometry. […]
METRIC_NAME: microsomal CLint

Q: Consider the compound O=C(/C=C/c1ccc(O)c(O)c1)O[C@H](Cc1ccc(O)c(O)c1)C(=O)O and give its measured microsomal CLint.
A: 0.07 µL/min/mg

###

# ASSAYED_SYSTEM: human OAT2 (Homo sapiens)
# PROTOCOL_DESCRIPTION: Cellular transport assay, HEK-293 cells expressing human OAT2
# EXPERIMENTAL_CONTEXT: human hepatic sinusoidal uptake OAT2 (also renal basolateral); 5 min incubation, concentrations in Table 1
Entries and their measured K m follow.
Give just the numeric value; µM need not be written.

Some compounds with recorded K m:
O=C(O)Cc1c(/C=C/C(=O)O[C@H](Cc2ccc(O)c(O)c2)C(=O)O)ccc(O)c1O	111
O=C(/C=C/c1ccc(O)c(O)c1)O[C@H](Cc1ccc(O)c(O)c1)C(=O)O	48.6

Turning to the following compound.
Q: Tell me the measured K m of O=C(O)c1ccc(O)c(O)c1 , please.
A: 185

###

# ASSAYED_SYSTEM: rat Oat3 (Rattus norvegicus)
# Sequence (Q9R1U7 whole entry): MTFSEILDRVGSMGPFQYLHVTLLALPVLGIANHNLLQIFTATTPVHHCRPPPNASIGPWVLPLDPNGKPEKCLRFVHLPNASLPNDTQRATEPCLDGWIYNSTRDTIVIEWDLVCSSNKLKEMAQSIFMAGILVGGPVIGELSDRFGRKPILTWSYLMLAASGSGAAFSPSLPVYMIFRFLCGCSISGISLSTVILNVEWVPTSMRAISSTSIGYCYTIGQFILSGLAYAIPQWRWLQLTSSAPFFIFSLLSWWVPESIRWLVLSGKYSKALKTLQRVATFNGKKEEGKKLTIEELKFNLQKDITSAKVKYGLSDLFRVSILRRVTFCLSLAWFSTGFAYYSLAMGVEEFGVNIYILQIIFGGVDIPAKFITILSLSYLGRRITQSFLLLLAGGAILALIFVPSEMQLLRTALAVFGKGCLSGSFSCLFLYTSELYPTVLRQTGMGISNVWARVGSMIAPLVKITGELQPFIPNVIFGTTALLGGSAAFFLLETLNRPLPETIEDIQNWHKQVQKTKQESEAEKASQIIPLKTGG
# PROTOCOL_DESCRIPTION: Cellular transport assay, HEK-293 cells expressing rat Oat3
# EXPERIMENTAL_CONTEXT: rat
METRIC_NAME: microsomal CLint (µL/min/mg)
Reply with just the number (in µL/min/mg).

Q: Fill in: microsomal CLint of O=C(O)c1ccc(O)c(O)c1 is ___
A: 0.57

###

A collection of compounds and their measured microsomal CLint
# ASSAYED_SYSTEM: human OAT2 (Homo sapiens)
# Sequence (Q9Y694 1-546 isoform Q9Y694-2): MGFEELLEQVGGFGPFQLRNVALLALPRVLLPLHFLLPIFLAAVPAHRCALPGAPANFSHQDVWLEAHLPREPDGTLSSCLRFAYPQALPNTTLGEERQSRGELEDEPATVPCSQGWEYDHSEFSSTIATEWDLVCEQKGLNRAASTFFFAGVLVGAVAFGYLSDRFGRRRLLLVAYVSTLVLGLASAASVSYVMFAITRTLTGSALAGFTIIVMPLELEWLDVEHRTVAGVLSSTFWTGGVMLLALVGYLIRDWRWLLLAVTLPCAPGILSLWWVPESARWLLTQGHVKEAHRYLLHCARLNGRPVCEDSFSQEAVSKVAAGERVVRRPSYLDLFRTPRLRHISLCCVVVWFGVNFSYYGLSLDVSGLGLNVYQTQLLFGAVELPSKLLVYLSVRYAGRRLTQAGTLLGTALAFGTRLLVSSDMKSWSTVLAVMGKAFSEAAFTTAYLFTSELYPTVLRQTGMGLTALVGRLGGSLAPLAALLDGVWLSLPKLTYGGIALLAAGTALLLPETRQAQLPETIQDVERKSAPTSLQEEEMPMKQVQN
# PROTOCOL_DESCRIPTION: Cellular transport assay, HEK-293 cells expressing human OAT2
# EXPERIMENTAL_CONTEXT: human
Provide the reading as a plain figure in µL/min/mg.

O=C(O)Cc1c(/C=C/C(=O)O[C@H](Cc2ccc(O)c(O)c2)C(=O)O)ccc(O)c1O [Salvianolic acid D, salvianolic acid D]	24.3

Q: Data request, read-out microsomal CLint, for O=C(O)c1ccc(O)c(O)c1 [Protocatechuic acid, protocatechuic acid]
A: 20.7

###

// reported microsomal CLint per item
# ASSAYED_SYSTEM: rat Oat1 (Rattus norvegicus, UniProt O35956)
# Sequence (O35956 1-551): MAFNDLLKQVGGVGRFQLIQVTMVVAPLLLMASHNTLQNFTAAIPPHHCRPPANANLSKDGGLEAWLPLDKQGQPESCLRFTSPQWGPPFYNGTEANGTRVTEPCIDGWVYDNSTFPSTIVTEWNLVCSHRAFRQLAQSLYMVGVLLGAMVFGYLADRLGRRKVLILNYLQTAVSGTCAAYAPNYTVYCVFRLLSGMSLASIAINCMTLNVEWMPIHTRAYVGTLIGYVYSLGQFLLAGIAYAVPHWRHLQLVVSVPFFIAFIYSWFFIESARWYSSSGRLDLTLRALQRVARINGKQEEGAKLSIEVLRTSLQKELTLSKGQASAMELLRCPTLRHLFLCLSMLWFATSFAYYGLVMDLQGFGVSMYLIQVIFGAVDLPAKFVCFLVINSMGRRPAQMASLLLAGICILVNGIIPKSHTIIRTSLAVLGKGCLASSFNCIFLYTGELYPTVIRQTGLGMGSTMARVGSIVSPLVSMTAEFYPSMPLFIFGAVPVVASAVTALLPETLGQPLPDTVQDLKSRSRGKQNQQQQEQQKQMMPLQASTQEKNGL
# PROTOCOL_DESCRIPTION: Cellular transport assay, HEK-293 cells expressing rat Oat1
# EXPERIMENTAL_CONTEXT: rat
Write the value in µL/min/mg as a bare number.

O=C(O)Cc1c(/C=C/C(=O)O[C@H](Cc2ccc(O)c(O)c2)C(=O)O)ccc(O)c1O	4.72

Next compound, please.
Q: Recorded microsomal CLint for O=C(O)c1ccc(O)c(O)c1 with rat Oat1 (Rattus norvegicus, UniProt O35956), please?
A: 4.07

###

# ASSAYED_SYSTEM: rat Oat3 (Rattus norvegicus)
# PROTOCOL_DESCRIPTION: Cellular transport assay, HEK-293 cells expressing rat Oat3
# EXPERIMENTAL_CONTEXT: rat, other cell line
METRIC_NAME: microsomal CLint

O=C(O)C(O)Cc1ccc(O)c(O)c1 (centres unmarked)	0.07 µL/min/mg

Q: Dear colleague, I am looking for the recorded microsomal CLint of the following compound: O=C(/C=C/c1ccc(O)c(O)c1)O[C@H](Cc1ccc(O)c(O)c1)C(=O)O
A: 0.15 µL/min/mg
